Reported IC50 values are given for each entry in this list.
Target: EP4 (Homo sapiens)
Construct: also expresses a promiscuous G protein and a clytin variant
Sequence (P35408 whole entry): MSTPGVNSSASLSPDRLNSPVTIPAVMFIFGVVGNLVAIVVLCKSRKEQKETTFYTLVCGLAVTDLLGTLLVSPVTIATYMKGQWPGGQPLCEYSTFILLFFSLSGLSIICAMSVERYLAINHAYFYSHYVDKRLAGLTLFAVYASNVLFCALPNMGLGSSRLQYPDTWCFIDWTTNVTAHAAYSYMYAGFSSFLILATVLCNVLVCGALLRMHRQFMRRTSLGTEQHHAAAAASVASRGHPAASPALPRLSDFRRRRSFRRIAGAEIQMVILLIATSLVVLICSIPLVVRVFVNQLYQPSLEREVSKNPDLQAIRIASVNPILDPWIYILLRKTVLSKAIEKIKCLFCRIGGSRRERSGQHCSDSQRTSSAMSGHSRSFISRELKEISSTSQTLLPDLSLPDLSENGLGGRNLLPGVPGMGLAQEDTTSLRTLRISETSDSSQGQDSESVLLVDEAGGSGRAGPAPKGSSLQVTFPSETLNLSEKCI
Experiment: EP4 Ca2+-flux assay (functional calcium flux assay, stably transfected HEK293 cells)
Conditions: HEK293 cells stably transfected with EP4; ligand PGE2 10 nM; luminescence readout
Give the number; nM is assumed, so skip it.

Known results for molecules:
{"columns": ["Molecule", "Obs value"],
 "data": [
  ["O=C(NC1CC2(C1)CC(C(=O)O)C2)c1cc(F)cc2ccn(Cc3ccc(C(F)(F)F)cc3)c12 (racemic)", 0.31],
  ["O=C(O)C[C@]12C[C@](NC(=O)c3ccc(F)c4ccn(Cc5ccc(-c6ccccc6)cc5)c34)(C1)C2", 0.28],
  ["O=C(O)CC12CC(NC(=O)c3nccc4ccn(Cc5ccc(C(F)(F)F)cc5)c34)(C1)C2", 930],
  ["O=C(NC1CC2(C1)CC(C(=O)O)C2)c1ccc(F)c2ccn(Cc3ccc(C(F)F)cc3)c12 (racemic)", 0.03],
  ["O=C(O)C[C@]12C[C@](NC(=O)c3cccc4cnn(Cc5ccc(OC(F)(F)F)cc5)c34)(C1)C2", 75],
  ["N#Cc1ccc(Cn2ccc3cccc(C(=O)NC45CC(CC(=O)O)(C4)C5)c32)cc1", 13]
]}

# input for lookup
## Task What value of IC50 on EP4 (Homo sapiens) does O=C(O)CC12CCC(NC(=O)c3cccc4ccn(Cc5ccc(C(F)(F)F)cc5)c34)(C1)C2 have?
## Result 9.1
